Where these numbers come from: the supplement of paper PMC6755084

B1: minF1; a variant is named by its letters at N, in order (parent)
chain: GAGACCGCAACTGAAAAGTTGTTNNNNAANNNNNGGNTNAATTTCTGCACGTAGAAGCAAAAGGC

Variants of: B1
Assay: fraction ligated after 30 min (ligated reads / total reads); higher = more ligase activity
Conditions: with F1*subA RNA substrate (template-directed ligation), 42 °C
Could you please report measured fraction ligated for the items listed next?
Number only, please.

Challenge: Record request: fraction ligated value, item GAGACCGCAACTGAAAAGTTGTCAGAAATGGATGGGTTGAATTTCTGCACGTAGAAGCAAAAGGC
Response given: 0.0071

Challenge: Cool, now GAGACCGCAACTGAAAAGTTGTTTCAAAATGGATGGGTTGATTTCTGCACGTAGAAGCAAAAGGC
Response given: 0.0177

Challenge: How about GAGACCGCAACTGAAAAGTTGTATAGAAATGGAGGGTTGAATTTCTGCACGTAGAAGCAAAAGGC ?
Response given: 0

Challenge: # iterate: GAGACCGCAACTGAAAAGTTGTTACAGAATGGATGGGTTAATTTCTGCACGTAGAAGCAAAAGGC
Response given: 0.00954

Challenge: // repeat for GAGACCGCAACTGAAAAGTTGTATCAGAATGGTGGGTTGAATTTCTGCACGTAGAAGCAAAAGGC and report
Response given: 0.00335

Challenge: What do you have for GAGACCGCAACTGAAAAGTTGTATCAAAATGGATGGTTGAATTTCTGCACGTAGAAGCAAAAGGC ?
Response given: 0.0162

Challenge: Try the variant GAGACCGCAACTGAAAAGTTGTTACAAAATGGATGGTTGAATTTCTGCACGTAGAAGCAAAAGGC
Response given: 0.0118

Challenge: # iterate: GAGACCGCAACTGAAAAGTTGTTATCAAAATGTGGGTTGAATTTCTGCACGTAGAAGCAAAAGGC
Response given: 0.0057

Challenge: Note, next up: GAGACCGCAACTGAAAAGTTGTTATCAAAAGGTGGGTTGAATTTCTGCACGTAGAAGCAAAAGGC
Response given: 0.00569

Challenge: Again, but for GAGACCGCAACTGAAAAGTTGTATCAGAATGGATGGGTTAATTTCTGCACGTAGAAGCAAAAGGC
Response given: 0.00804

Challenge: Next variant up: GAGACCGCAACTGAAAAGTTGTTATAAAATGGATGGGTTGATTTCTGCACGTAGAAGCAAAAGGC
Response given: 0.0127

Challenge: Again, but for GAGACCGCAACTGAAAAGTTGTTTCAGAAATGGAGGTTGAATTTCTGCACGTAGAAGCAAAAGGC
Response given: 0.00236

Challenge: Same read-out for GAGACCGCAACTGAAAAGTTGTATCAGAAATGATGGTTGAATTTCTGCACGTAGAAGCAAAAGGC ?
Response given: 0.00216

Challenge: Same again, this time with GAGACCGCAACTGAAAAGTTGTTATCAGAATGGAGGGTTGATTTCTGCACGTAGAAGCAAAAGGC
Response given: 0.00701

Challenge: Now consider GAGACCGCAACTGAAAAGTTGTTATAGAAATGGAGGGTTAATTTCTGCACGTAGAAGCAAAAGGC and answer again.
Response given: 0.00474

Challenge: Continue with GAGACCGCAACTGAAAAGTTGTTACAGAAATGGGGGTTGAATTTCTGCACGTAGAAGCAAAAGGC
Response given: 0.00695

Challenge: Follow-up entry: GAGACCGCAACTGAAAAGTTGTTTAGAAATGGATGGGTTGATTTCTGCACGTAGAAGCAAAAGGC
Response given: 0.00383

Challenge: Item: GAGACCGCAACTGAAAAGTTGTTATAGAAATGATGGGTTGATTTCTGCACGTAGAAGCAAAAGGC
Response given: 0.00341

Challenge: Please do the same for GAGACCGCAACTGAAAAGTTGTTTCAGAATGGAGGGTTGAATTTCTGCACGTAGAAGCAAAAGGC as well.
Response given: 0.00343

Challenge: Try this variant next: GAGACCGCAACTGAAAAGTTGTTATCAAAATGGATGGGTTATTTCTGCACGTAGAAGCAAAAGGC
Response given: 0.00324

Challenge: Another: GAGACCGCAACTGAAAAGTTGTTTCGAAATGGATGGGTTAATTTCTGCACGTAGAAGCAAAAGGC
Response given: 0.0171

Challenge: Okay, and GAGACCGCAACTGAAAAGTTGTTATCAGAATGGTGGTTGAATTTCTGCACGTAGAAGCAAAAGGC ?
Response given: 0.00263
